Target: T1, PUF4 RNA-binding domain (Saccharomyces cerevisiae, UniProt P25339 537-888)
T1 sequence: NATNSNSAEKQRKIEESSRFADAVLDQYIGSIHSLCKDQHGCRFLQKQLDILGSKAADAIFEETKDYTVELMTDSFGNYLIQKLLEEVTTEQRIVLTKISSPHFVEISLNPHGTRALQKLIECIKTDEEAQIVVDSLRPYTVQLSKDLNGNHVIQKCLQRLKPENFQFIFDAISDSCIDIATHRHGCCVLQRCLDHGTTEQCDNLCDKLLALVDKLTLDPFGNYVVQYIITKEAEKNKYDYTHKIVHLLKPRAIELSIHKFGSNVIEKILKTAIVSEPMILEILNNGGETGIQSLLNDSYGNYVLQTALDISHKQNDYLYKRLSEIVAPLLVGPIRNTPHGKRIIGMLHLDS
Experiment: Mg; RNA-MaP; 20 mM Na-HEPES pH 7.4, 30 mM KOAc, 0.75 mM MgCl2, 0.1% Tween-20, 5% glycerol, 0.1 mg/mL BSA, 2 mM DTT; 25 C; 0.0125-409.6 nM protein
Settings: tags: N-His6-TEV cleaved; C-SNAP kept, Cy3B-labelled; label: tethered on chip by stalled RNA polymerase

{"columns": ["binder", "Kd"],
 "data": [
  ["Id_ii_S2_P4E.3_K4.2_C4.2_[C-2A]_[T-1C]_H4.2_A4.1_F4.1_T4.2_[G10C]_[T11A] (ssRNA) RNA: UUUGAUUAAUAUGAUAUCGUUCUUUCUACUAUAUAUUACAUUCUUUCUCGAUAUCAUAUUAAUCUUU", "16.8 nM"],
  ["ACAAACCCACACUAUUAAGACAAAC (ssRNA) [Id_ii_S3_P4E.4_K4.3_C4.2_[T-1C]_H4.3_A4.1_F4.1_T4.2_[G10A]_[T11G]]", "> 2300 nM"],
  ["UCUCUUUGUAUGGCUCUCUCUU (ssRNA) [Ic_S1_P5E.1_K5.1_C5.1_H5.1_A5.1_[T6G]_[A7G]_F5.1_[T8C]_[A10C]_T5.1]", "> 2300 nM"]
]}
